Source of measurements: the Human Domainome abundance scans (Beltran et al. 2025)

B1: Steroid hormone receptor ERR2, residues 100 to 176; numbered along this chain, O95718 (parent)
chain: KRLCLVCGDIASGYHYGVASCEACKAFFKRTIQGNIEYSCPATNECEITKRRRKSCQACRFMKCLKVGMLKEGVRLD

# Variants of: B1
# EXPERIMENT_NOTES: abundance fitness (aPCA) (normalised: wild type 0, dead -1); higher = more abundant; growth selection in yeast, the domain comes from the species named
# APPLIED_CONDITIONS: Homo sapiens
The following variants are shown together with reported abundance fitness values.
Would you mind answering with just the numeric figure?

Here is how some variants turned out for abundance fitness.
A11Q = -0.217
I10N = -0.393
A23I = -0.806
F61S = -0.509
R53L = 0.074
A19V = 0.035
T31R = -0.678
C64G = -0.582
Q33W = -0.411
C59E = -0.704

Form: variant = I48N ; abundance fitness = 0.266

Form: variant = P41E ; abundance fitness = 0.057

Form: variant = E22T ; abundance fitness = -0.19

Form: variant = T31S ; abundance fitness = -0.175

Form: variant = C7H ; abundance fitness = -1
